System: bFGF-induced angiogenesis in the CAM model
assayProcedure: bFGF (FGF2)-stimulated CAM model
Assay type: in vivo, chicken
measurementContext: Gallus gallus; bFGF/FGF2 1 ug; 30 ug injected; read-out: % Inhibition ± SEM
So basically: inhibition in vivo at 0.03 mg at 80% or higher? That is yes (1). Lower than 80%? That is no (0).

>>> df
                                   compound  classname
0  CC1C(O)C(C)C(C)(C)N(O)C1(C)C.Cl (stereo not shown)     no (0)
1         CC(=O)NC1CC(C)(C)N(O)C(C)(C)C1.Cl     no (0)
2  CC1(C)CC(OC(=O)C2CC2)CC(C)(C)N1O.Cl [OT-551, hydrochloride]     no (0)
3  CC1(C)CC(Oc2nsnc2N2CCOCC2)CC(C)(C)N1O.Cl    yes (1)
4          CC1(C)CC(N2CCOCC2)CC(C)(C)N1O.Cl     no (0)
5              COC1CC(C)(C)N(O)C(C)(C)C1.Cl    yes (1)

* * *

# reported inhibition in vivo at 0.03 mg; entries follow
System: bFGF-induced angiogenesis in the CAM model
assayProcedure: bFGF (FGF2)-stimulated CAM model
Assay type: in vivo, chicken
measurementContext: Gallus gallus; bFGF/FGF2 1 ug; 30 ug injected; read-out: % Inhibition ± SEM
assayMetric: inhibition in vivo at 0.03 mg (%)

                                   compound                    assaymetric  unitssymbol  resultvalue
0                   CC1(C)CC(=O)CC(C)(C)N1O  inhibition in vivo at 0.03 mg            %         26.5
1  CC1(C)CC(O)C(Br)C(C)(C)N1O (centres unmarked)  inhibition in vivo at 0.03 mg            %         82.2
2  CC1(C)CC(O)C(C)(C)N1O (centres unmarked)  inhibition in vivo at 0.03 mg            %          124
3                   CC1(C)C=C(CO)C(C)(C)N1O  inhibition in vivo at 0.03 mg            %         88.1
4    CC1(C)CC(NC(=O)N2CCOCC2)CC(C)(C)N1O.Cl  inhibition in vivo at 0.03 mg            %           71

* * *

Test system: TNFα
assayProcedure: Measurement of LPS Induced-TNFα in THP-1 Cells
Assay type: cell-based, human
measurementContext: Homo sapiens, THP-1; compound 10 uM; 5 ng/mL LPS; read-out: Mean Percent Inhibition of TNF-alpha using 5 ng/mL LPS
Description: The lipid peroxidation assay method of Ohkawa, H.; Ohishi, N.; Yaki, K. Anal. Biochem. 1979, 95, 351 was used to evaluate […]. […] […] Cells were collected and spun at 1500 g for 10 minutes. Supernatant was collected and analyzed for TNFα. Mean Percent Inhibition of TNF-alpha by compounds of the present invention is set forth in Table B. TNF-alpha inhibition data is set forth in Table B-1. OT-551 was used in both native form and in the form of nanoparticles. […]
Entries are grouped by inhibition at 10 µM into these classes: 0: < 50%; 1: ≥ 50% and < 60%; 2: ≥ 60%

In [3]: df
Out[3]:
                                   compound  classname
0    CC1(C)CC(NC(=O)N2CCOCC2)CC(C)(C)N1O.Cl          0
1           CC1(C)CC(Oc2nsnc2Cl)CC(C)(C)N1O          0
2  CC1(C)CC(O)C(C)(C)N1O (stereo not shown)          2
3  CC1(C)CC(O)C(Br)C(C)(C)N1O (stereo not shown)          0
4  CC1C(O)C(C)C(C)(C)N(O)C1(C)C.Cl (stereo not shown)          1
5         CC(=O)NC1CC(C)(C)N(O)C(C)(C)C1.Cl          2
6                   CC1(C)C=C(CO)C(C)(C)N1O          1
7  CC1(C)CC(OC(=O)C2CC2)CC(C)(C)N1O.Cl [OT-551, hydrochloride]          2
8               CC1(C)CC(C#N)CC(C)(C)N1O.Cl          0
9       CC1(C)c2ccc(C(=O)O)cc2C(C)(C)N1O.Cl          2
